Reference source: paper PMC7226045

system: MDCKII-ABCB1 cells; assay: MTT proliferation / drug combination assay, MDCKII-ABCB1; conditions: Canis lupus familiaris, 48 h
pIC50: −log10 of the molar value.
ASSAY METRIC: pIC50

entry_smiles=COc1cccc2c1C(=O)c1c(O)c3c(c(O)c1C2=O)C[C@@](O)(C(C)=O)C[C@@H]3O[C@H]1C[C@H](N)[C@H](O)[C@H](C)O1 assay_target="MDCKII-ABCB1 cells" quantitative_readout=4.92

---

target: CYP1A2 (Homo sapiens, UniProt P05177); test: Vivid CYP screening kit, recombinant CYP1A2; conditions: recombinant enzyme, 15 min incubation, absolute IC50; read-out: CYP1A2 inhibition IC50
Sequence (P05177 2-516 limits assumed): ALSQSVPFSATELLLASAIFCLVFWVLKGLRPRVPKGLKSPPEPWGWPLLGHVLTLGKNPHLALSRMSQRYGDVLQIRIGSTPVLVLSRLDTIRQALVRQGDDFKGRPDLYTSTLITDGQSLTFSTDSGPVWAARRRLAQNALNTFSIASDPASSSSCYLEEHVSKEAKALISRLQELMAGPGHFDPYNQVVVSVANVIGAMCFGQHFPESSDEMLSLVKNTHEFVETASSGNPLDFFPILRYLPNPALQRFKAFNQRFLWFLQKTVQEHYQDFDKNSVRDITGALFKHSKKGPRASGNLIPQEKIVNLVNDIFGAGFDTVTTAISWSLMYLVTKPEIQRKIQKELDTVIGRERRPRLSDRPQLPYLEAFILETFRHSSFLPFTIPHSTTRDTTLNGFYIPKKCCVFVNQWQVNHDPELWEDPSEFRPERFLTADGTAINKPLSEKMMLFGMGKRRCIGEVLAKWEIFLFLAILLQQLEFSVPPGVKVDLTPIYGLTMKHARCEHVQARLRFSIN
ASSAY METRIC: IC50

entry_smiles=C[C@@H]1CN(C(=O)c2ccc(NC(=O)c3cc(O[C@H](C)c4c(Cl)ccc(F)c4Cl)c(N)nn3)cc2)C[C@H](C)N1 assay_target="CYP1A2 (Homo sapiens, UniProt P05177)" result="> 50 µM"

---

assay: MTT proliferation assay, A431-ABCB1; assay type: cell-based; settings: human, A431-ABCB1 cells, read-out: IC50, sensitivity to ensartinib
ASSAY METRIC: IC50 at 48 h (nM)

entry_smiles=C[C@@H]1CN(C(=O)c2ccc(NC(=O)c3cc(O[C@H](C)c4c(Cl)ccc(F)c4Cl)c(N)nn3)cc2)C[C@H](C)N1 quantitative_readout=2790

---

biological target: ABCG2 (Homo sapiens, UniProt Q9UNQ0); construct: expressed in transfected cells; host or cells: MDCKII-ABCG2 (from Dr. Alfred Schinkel, The Netherlands Cancer Institute); test: hoechst 33342 accumulation assay in MDCKII-ABCG2 cells; format: cell-based; conditions: read-out: IC50, inhibition of ABCG2 (hoechst 33342 accumulation)
Sequence (Q9UNQ0 whole entry): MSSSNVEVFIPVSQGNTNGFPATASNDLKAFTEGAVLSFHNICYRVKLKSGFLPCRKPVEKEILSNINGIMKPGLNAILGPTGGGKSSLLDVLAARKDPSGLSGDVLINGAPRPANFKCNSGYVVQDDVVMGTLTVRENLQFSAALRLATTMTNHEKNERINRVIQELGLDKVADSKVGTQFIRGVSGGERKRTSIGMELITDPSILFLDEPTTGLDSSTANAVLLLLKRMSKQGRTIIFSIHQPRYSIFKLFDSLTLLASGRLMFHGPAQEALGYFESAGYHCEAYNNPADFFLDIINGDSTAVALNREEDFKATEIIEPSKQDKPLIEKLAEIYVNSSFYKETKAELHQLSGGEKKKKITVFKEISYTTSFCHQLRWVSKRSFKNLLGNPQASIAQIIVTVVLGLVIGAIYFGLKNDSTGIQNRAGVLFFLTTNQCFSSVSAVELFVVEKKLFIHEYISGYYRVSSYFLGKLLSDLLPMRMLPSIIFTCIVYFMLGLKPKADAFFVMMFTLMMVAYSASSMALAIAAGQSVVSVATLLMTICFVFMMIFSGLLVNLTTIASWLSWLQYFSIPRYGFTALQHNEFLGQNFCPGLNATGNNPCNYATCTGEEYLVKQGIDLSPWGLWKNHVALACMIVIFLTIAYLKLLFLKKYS
ASSAY METRIC: IC50

entry_smiles=C[C@@H]1CN(C(=O)c2ccc(NC(=O)c3cc(O[C@H](C)c4c(Cl)ccc(F)c4Cl)c(N)nn3)cc2)C[C@H](C)N1 assay_target="ABCG2 (Homo sapiens, UniProt Q9UNQ0)" result="9.13 µM"

---

target: ABCC1 (Homo sapiens); construct: expressed in transfected cells; host or cells: MDCKII-ABCC1 (from Dr. Alfred Schinkel, The Netherlands Cancer Institute); assay: daunorubicin accumulation assay (flow cytometry) in MDCKII-ABCC1 cells; type: cell-based; details: 2 µM daunorubicin, 1 h, read-out: IC50, inhibition of daunorubicin efflux by ABCC1
Sequence (P33527 whole entry): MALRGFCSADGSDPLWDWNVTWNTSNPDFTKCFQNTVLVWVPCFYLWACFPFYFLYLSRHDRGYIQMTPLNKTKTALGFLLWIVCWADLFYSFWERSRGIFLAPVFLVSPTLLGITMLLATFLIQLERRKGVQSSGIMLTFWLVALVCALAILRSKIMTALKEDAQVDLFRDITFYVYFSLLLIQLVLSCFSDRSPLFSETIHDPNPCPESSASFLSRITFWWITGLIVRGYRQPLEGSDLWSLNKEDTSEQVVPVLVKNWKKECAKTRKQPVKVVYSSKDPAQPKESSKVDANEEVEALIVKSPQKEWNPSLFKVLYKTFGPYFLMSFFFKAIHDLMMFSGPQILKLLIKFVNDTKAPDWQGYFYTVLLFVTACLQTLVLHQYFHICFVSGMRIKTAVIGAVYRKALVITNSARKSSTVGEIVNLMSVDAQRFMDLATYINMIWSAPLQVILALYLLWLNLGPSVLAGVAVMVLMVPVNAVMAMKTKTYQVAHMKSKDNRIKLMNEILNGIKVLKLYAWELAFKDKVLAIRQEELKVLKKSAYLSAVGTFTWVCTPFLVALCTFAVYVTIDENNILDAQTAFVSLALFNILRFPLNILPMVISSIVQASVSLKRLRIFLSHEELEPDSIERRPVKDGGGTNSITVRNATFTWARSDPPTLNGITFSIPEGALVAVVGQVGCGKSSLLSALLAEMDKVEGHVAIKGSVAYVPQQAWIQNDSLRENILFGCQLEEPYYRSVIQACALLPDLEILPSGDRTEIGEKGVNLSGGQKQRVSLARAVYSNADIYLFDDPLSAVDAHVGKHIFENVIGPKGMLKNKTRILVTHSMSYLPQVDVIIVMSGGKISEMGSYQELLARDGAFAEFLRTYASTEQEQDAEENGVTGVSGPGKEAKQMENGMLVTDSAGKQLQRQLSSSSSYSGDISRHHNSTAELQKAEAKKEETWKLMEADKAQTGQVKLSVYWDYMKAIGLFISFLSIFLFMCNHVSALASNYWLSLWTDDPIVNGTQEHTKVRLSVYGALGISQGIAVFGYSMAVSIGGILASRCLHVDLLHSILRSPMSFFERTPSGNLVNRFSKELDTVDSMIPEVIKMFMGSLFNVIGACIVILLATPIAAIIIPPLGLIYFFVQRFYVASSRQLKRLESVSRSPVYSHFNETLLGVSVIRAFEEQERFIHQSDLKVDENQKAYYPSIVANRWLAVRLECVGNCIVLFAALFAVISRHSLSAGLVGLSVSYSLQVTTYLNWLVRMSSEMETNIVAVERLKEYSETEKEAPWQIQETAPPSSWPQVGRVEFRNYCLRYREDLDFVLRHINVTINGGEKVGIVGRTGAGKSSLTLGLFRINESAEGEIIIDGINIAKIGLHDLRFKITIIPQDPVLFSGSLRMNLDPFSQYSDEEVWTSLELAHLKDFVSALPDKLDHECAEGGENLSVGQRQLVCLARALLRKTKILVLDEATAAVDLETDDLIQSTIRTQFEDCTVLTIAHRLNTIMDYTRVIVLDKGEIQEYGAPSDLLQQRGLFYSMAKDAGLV
pIC50: −log10 of the molar value.
ASSAY METRIC: pIC50

entry_smiles=C[C@@H]1CN(C(=O)c2ccc(NC(=O)c3cc(O[C@H](C)c4c(Cl)ccc(F)c4Cl)c(N)nn3)cc2)C[C@H](C)N1 result="< 4.30"

---

assay: MTT proliferation assay, A431-ABCG2; assay type: cell-based; conditions: human, A431-ABCG2 cells, read-out: IC50, sensitivity to ensartinib
ASSAY METRIC: IC50 at 48 h (µM)

compound="C[C@@H]1CN(C(=O)c2ccc(NC(=O)c3cc(O[C@H](C)c4c(Cl)ccc(F)c4Cl)c(N)nn3)cc2)C[C@H](C)N1 [ensartinib, Ensartinib]" assay_metric="IC50 at 48 h" quantitative_readout=2.26

---

test: XTT proliferation / drug combination assay, HL60-ABCB1; details: human, HL60-ABCB1 cells
ASSAY METRIC: IC50 at 48 h

entry_smiles=C[C@@H]1CN(C(=O)c2ccc(NC(=O)c3cc(O[C@H](C)c4c(Cl)ccc(F)c4Cl)c(N)nn3)cc2)C[C@H](C)N1 result="29.6 µM"
